Quick reference: growth inhibition of the listed items.
ASSAY OVERVIEW: NCI Yeast Anticancer Drug Screen. Data for the rad50 strain (AID 155);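 note: 0% = growth of vehicle-only cultures of the same strain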
CONDITION INFO: S. cerevisiae rad50 strain growth inhibition; at 50.0 µM; stronger effect = higher value
About 79,000 compounds went through this panel and 15% of them were active in at least one assay; those are over-represented in the sample as a whole.
Use % as the unit, but write only the number.

Solved entries (count: 2):
INSERT INTO results (molecule, value_reported) VALUES
  ('CC1CCC(C(C)C2C(O)CC3C4CCC5CC(O)CCC5(C)C4CCC32C)NC1 (stereo not drawn)', 91.8),
  ('C=CC1(c2ccc(OC)cc2)OCCCO1', 89.7);

Qu. Any idea what its growth inhibition is? The molecule is O=C(O)Cc1ccc2c(c1O)C(=O)c1ccccc1C2=O
Ans. 89.3
